Data provenance: PubChem BioAssay (NCI)

Measured growth inhibition by item
Assay: NCI Yeast Anticancer Drug Screen. Data for the bub3 strain (AID 167)
Settings: S. cerevisiae bub3 mutant strain, at 50.0 µM, hits give high values
The panel holds about 79,000 compounds, 15% with a hit somewhere; the sample as a whole holds those more often.

{"columns": ["MOLECULE", "growth inhibition [%]"],
 "data": [
  ["CC(C)n1c(=O)nc(-c2ccccc2)c2cc3c(cc21)OCO3", 47.9],
  ["CC(C)=CCC/C(C)=N\\Nc1ccc([N+](=O)[O-])cc1[N+](=O)[O-]", 2.15],
  ["O=C(CC(=O)N(C(=O)/C=C\\c1ccccc1)c1ccc(Cl)cc1)N1N=C(c2ccccc2)C(N=Nc2cccc([N+](=O)[O-])c2)C1=O (stereo unspecified)", 14.7],
  ["CCOC(=O)NC(=O)c1cn(CC(=O)NCC(=O)NCC(=O)NCCCN2CCN(CCCNC(=O)CNC(=O)CNC(=O)Cn3cc(C(=O)NC(=O)OCC)c(=O)[nH]c3=O)CC2)c(=O)[nH]c1=O", -1.05],
  ["FC(F)(F)C1(C(F)(F)F)OI2(Br)(OC(C(F)(F)F)(C(F)(F)F)c3ccccc32)c2ccccc21", -5.3],
  ["Cc1nc2ccccc2nc1N1CCCC1", -47.8],
  ["Cc1oc2ccccc2c(=O)c1Cn1cnc2ccc([N+](=O)[O-])cc21", 5.85],
  ["CCCC(O)CNCc1ccc2ncccc2c1 (stereo unspecified)", -4.35],
  ["CC[n+]1ccc(/C=C\\c2c(Cl)cccc2Cl)cc1", 7.8],
  ["Cn1c([N+](=O)[O-])cnc1/C=C1\\CCc2cc(OCCN3CCCC3)ccc2C1=O", -2],
  ["O/N=C1/CCCCCC1NO (stereo unspecified)", -18.1],
  ["C=C(C)CC(O)CCCCC (stereo unspecified)", 17.3],
  ["COC(=O)C(=O)C(C#N)c1c(Cl)cccc1Cl (stereo unspecified)", 1.65],
  ["Nc1nc(SCc2ccccc2Cl)cc(C(=O)O)n1", 44],
  ["O=C1OCC2=C1C(c1ccc3c(c1)OCO3)c1cc3c(cc1O2)OCO3 (stereo unspecified)", -8.6],
  ["COC1OC(CO)C(O)C(OCc2ccccc2)C1OCc1ccccc1 (stereo unspecified)", -7.4],
  ["CSc1ccc2c(cc1=O)[C@@H](NC(C)=O)CCc1cc(O)c(O)c(O)c1-2", 17.4],
  ["COc1ccc(C(=O)c2ccccc2C)cc1OC", 36.5],
  ["NC(=S)N1CCCC1", 17.6],
  ["Nc1nc(NCCO)c(N=O)c(=O)[nH]1", 10.1],
  ["C=CCNCC(O)C(F)(F)C(F)(F)C(F)(F)C(F)(F)C(F)(F)C(F)(F)F (stereo unspecified)", 7.55],
  ["O=C(O)c1ccoc1-c1ccccc1", -7.55],
  ["O=C(Nc1nc2ccc([N+](=O)[O-])cc2s1)C(=O)C(C(=O)c1ccncc1)C1OC(=O)c2ccccc21 (stereo unspecified)", 49.8],
  ["CC1(CC2(C)SCCCS2)SCCCS1", -5.8],
  ["COc1cc(Br)cc2nc(-c3cccs3)oc12", -8.1],
  ["COc1ccc(-c2cc(-c3cc(C)cc(Br)c3O)no2)cc1", -4.4],
  ["O=c1[nH]c2ccccc2c(=O)n1CCCN1CCN(c2cccc(Cl)c2)CC1", 15.8],
  ["CCOC(=O)C1=C(O)c2ccccc2S(=O)(=O)N1C (tested in a mixture with another compound)", -25.6],
  ["CN(C)c1ccc2c(c1[N+](=O)[O-])Cc1ccccc1-2", 32.2],
  ["COc1cc2cc(-c3ccccn3)nc(N)c2cc1OC", -1.5],
  ["NC(=S)N/N=C\\c1nccc2ccc(N)cc12", -5.8],
  ["O=C1COC(C(O)(c2ccccc2)c2ccccc2)C(=O)N1 (stereo unspecified)", -21.4],
  ["C=CCNC(=O)CN(CC(=O)OC)C1CCCCC1N(CC(=O)OC)CC(=O)OC (stereo unspecified)", 2],
  ["CC1(C)CCCCCCC2CC2CCCCCC(C)(C)C1=O (stereo unspecified)", -11.5],
  ["COC1=CC(=O)/C(=C(O)/C=C/c2ccccc2)C(=O)C1(C)C", 14.6],
  ["Cc1ccccc1NC(=O)CSc1nnc(-c2ccc(N=Cc3ccc(Cl)cc3)cc2)o1", -30]
]}
